The reported measurements were obtained from paper PMC5540273.

Form field: %Inh (one value per entry).
# Test system: MST4
# EXPERIMENTAL_CONTEXT: concentration: 1 μM, replicates: in singlicate; n = 1;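 also: KINOMEscan kinase panel screen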
Quick reminder: number only, in %, skip the unit.

# count of solved cases: 6
| MOLECULE | ASSAY_READOUT | RECORDED_VALUE |
| --- | --- | --- |
| Cl.NS(=O)(=O)c1cccc(Nc2cc(-c3ccc(F)cc3)n[nH]2)c1 [GW824645] | %Inh | 9 |
| Cc1nnc(-c2ccc(C)c(-c3ccc(C(=O)O)cc3)c2)o1 [GW608005] | %Inh | 0 |
| COc1ccc(-c2cc3c(C)nc(N)nc3n([C@H]3CC[C@H](O)CC3)c2=O)cn1 | %Inh | 0 |
| O=C(Nc1n[nH]c2nc(-c3ccccc3)c(Cl)cc12)C1CC1 [SB-734909] | %Inh | 37 |
| CN(C)c1cc(-c2ccc3c(N)n[nH]c3c2)nc(N)n1 [GSK2219329] | %Inh | 0 |
| Nc1nc(N)c2nc(-c3ccccc3)[nH]c2n1 [SKF-12778] | %Inh | 10 |

Request: Tell me its %Inh given COc1cc2ncn(-c3cc(OCc4ccc(S(C)(=O)=O)cc4)c(C(N)=O)s3)c2cc1OC [GW869979] as the entry.
Result: 14

Request: Tell me its %Inh given COc1cc(Nc2nccc(N3CCC(NC(=O)C4COc5ccccc5O4)C3)n2)cc(OC)c1OC (stereo not drawn) [GSK1379761] as the entry.
Result: 0

Request: Tell me its %Inh given C[C@@H]1CC[C@H](C(=O)NC2CCCCC2)CN1c1cc(-c2ccc3c(N)n[nH]c3c2)nc(N)n1 [GSK2291363] as the entry.
Result: 0

###

# Tested on: SRPK1
# EXPERIMENTAL_CONTEXT: concentration: 1 μM, replicates: in singlicate; n = 1
ASSAY_READOUT: %Inh (%)
Quick reminder: number only, in %, skip the unit.

| COMPOUND | UNIT | %Inh |
| --- | --- | --- |
| CCC(=O)c1c(-c2ccccc2)c2cc(Cl)ccc2c(=O)n1Cc1ccc(C(=O)O)cc1 | % | 0 |

Request: Tell me its %Inh given COc1cc(Nc2nccc(N3CCC(NC(=O)C(C)c4ccc(Cl)cc4)C3)n2)cc(OC)c1OC (centres unmarked) as the entry.
Result: 26

Request: Tell me its %Inh given "COc1cc2nccc(Nc3ccc(OCc4ccc(NC(C)=O)cc4)cc3)c2cc1OC.Cl" as the entry.
Result: 42

###

# Tested on: MTOR
# EXPERIMENTAL_CONTEXT: concentration: 1 μM, replicates: in singlicate; n = 1
ASSAY_READOUT: %Inh (%)
Quick reminder: number only, in %, skip the unit.

# count of solved cases: 4
| CHEM_SMILES | %Inh, % |
| --- | --- |
| CCn1c(-c2nonc2N)nc2ccccc21 | 0 |
| CCC(=O)c1c(-c2ccccc2)c2cc(Cl)ccc2c(=O)n1Cc1cc(S(C)(=O)=O)n(CC(N)=O)n1 | 40 |
| Cc1ccc(Oc2ccc(Nc3ncnc4cc[nH]c34)cc2C)cn1 | 0 |
| Nc1nccc2scc(-c3ccc4c(c3)CCN4C(=O)Cc3ccccc3)c12 | 14 |

Request: Tell me its %Inh given "CCc1ccc(-c2ccc3c(c2)-c2nn(C)cc2S(=O)(=O)N3C)cc1" as the entry.
Result: 23

###

# Test system: SNARK
# Construct: gene NUAK2
# EXPERIMENTAL_CONTEXT: concentration: 1 μM, replicates: in singlicate; n = 1
The threshold is inclusive: %Inh of exactly 8% counts as rule met; values below receive rule not met.

For orientation, consider the following solved cases.
| CHEM_SMILES | CLASS_NAME |
| --- | --- |
| CCC(=O)c1c(-c2ccccc2)c2cc(Cl)ccc2c(=O)n1Cc1cc(C(=O)NC2CC2)n(C)n1 | rule not met |
| CCCC(=O)Nc1n[nH]c2ncc(-c3cccc4ccccc34)cc12 | rule not met |
| CN1C(=O)C(Nc2ccccc2)=C(c2ccccc2)C1=O | rule met |

Request: Evaluate "O=c1cc(N2CCOCC2)nc2n(Cc3ccc(F)c(Cl)c3)ccn12" : %Inh at minimum 8%?
Result: rule met

Request: Evaluate "Cn1c(=O)c(F)c(Nc2ccc(I)cc2F)c2c(=O)n(OC[C@H](O)CO)cnc21" : %Inh at minimum 8%?
Result: rule not met

Request: Evaluate "CC(C)(C)c1ccc(C(=O)Nc2cn3cc(-c4ccccc4)ccc3n2)cc1" : %Inh at minimum 8%?
Result: rule not met

Request: Evaluate "O=C(Nc1ccc2c(c1)OCO2)NC1CCN(c2ccnc(NCc3ccc(F)cc3)n2)CC1" : %Inh at minimum 8%?
Result: rule not met

Request: Evaluate "CCCNC(=O)Nc1ccc(Oc2ncnc3ccn(C)c23)cc1" : %Inh at minimum 8%?
Result: rule not met

Request: Evaluate "COc1ccc(-c2cc3c(C)nc(N)nc3n([C@H]3CC[C@H](O)CC3)c2=O)cn1" : %Inh at minimum 8%?
Result: rule not met

Request: Evaluate "COc1ccc(-n2cnc3c(N)ncnc32)cc1" : %Inh at minimum 8%?
Result: rule met

###

Form field: %Inh (one value per entry).
# System: CSF1R
# EXPERIMENTAL_CONTEXT: concentration: 1 μM, replicates: in singlicate; n = 1
Quick reminder: number only, in %, skip the unit.

Request: Tell me its %Inh given COc1cc(Nc2ccnc3ccc(C(F)(F)F)cc23)cc(OC)c1OC [GW577382] as the entry.
Result: 8

Request: Tell me its %Inh given O=C(Nc1n[nH]c2nc(-c3ccccc3)c(Br)cc12)C1CC1 [SB-708998] as the entry.
Result: 0

Request: Tell me its %Inh given Nc1nc(-c2ccccc2F)c(-c2ccnc3ccccc23)s1 [GW560459] as the entry.
Result: 0

Request: Tell me its %Inh given Nc1n[nH]c2nnc(-c3ccccc3)c(-c3ccccc3)c12 [GW554060] as the entry.
Result: 0

Request: Tell me its %Inh given COc1ccc(CNC(=O)NC2CCN(c3ccnc(Nc4ccc(F)cc4)n3)C2)cc1 (stereo not shown) [GSK1379706] as the entry.
Result: 16

###

Form field: %Inh (one value per entry).
# Test system: RIPK1
# EXPERIMENTAL_CONTEXT: concentration: 1 μM, replicates: in singlicate; n = 1
Quick reminder: number only, in %, skip the unit.

| COMPOUND | UNIT | %Inh |
| --- | --- | --- |
| CCC(=O)c1c(-c2ccccc2)c2cc(Cl)ccc2c(=O)n1Cc1cc(C(=O)NC2CC2)n(C)n1 | % | 0 |

Request: Check RIPK1 data and give %Inh for "COc1cc2ncn(-c3cc(OCc4ccncc4Br)c(C(N)=O)s3)c2cc1OC" .
Result: 3

Request: Check RIPK1 data and give %Inh for "Cl.NS(=O)(=O)c1cccc(Nc2cc(-c3ccc(F)cc3)n[nH]2)c1" .
Result: 0

Request: Check RIPK1 data and give %Inh for "Nc1ncnc2c1ncn2-c1cccc(F)c1" .
Result: 22

Request: Check RIPK1 data and give %Inh for "Nc1n[nH]c2nnc(-c3ccccc3)c(-c3ccccc3)c12" .
Result: 0

Request: Check RIPK1 data and give %Inh for "COc1cc2nccc(Nc3ccc(OCc4ccc(NC(C)=O)cc4)cc3)c2cc1OC.Cl" .
Result: 0

Request: Check RIPK1 data and give %Inh for "CN(C)c1cc(-c2ccc3c(N)n[nH]c3c2)nc(N)n1" .
Result: 0

Request: Check RIPK1 data and give %Inh for "OCCCNc1nccc(-c2c(-c3cccc(C(F)(F)F)c3)nn3cc(C(F)(F)F)ccc23)n1" .
Result: 0

Request: Check RIPK1 data and give %Inh for "COc1cccc(C2=C(N(C)c3ccccc3)C(=O)NC2=O)c1" .
Result: 0

Request: Check RIPK1 data and give %Inh for "Nc1ncnc2c1ncn2-c1cccc2ccccc12" .
Result: 0

###

# System: EIF2AK1
# EXPERIMENTAL_CONTEXT: concentration: 1 μM, replicates: in singlicate; n = 1
Form field: %Inh (one value per entry).
Quick reminder: number only, in %, skip the unit.

# count of solved cases: 2
| COMPOUND | UNIT | %Inh |
| --- | --- | --- |
| Cc1nn2c(=O)cc(N3CCOCC3)nc2n1Cc1cccc(Cl)c1Cl [GSK2342769] | % | 0 |
| CCn1c(-c2ccoc2)nc2cnccc21 [SB-733887] | % | 8 |

Request: Tell me its %Inh given OCCCNc1nccc(-c2c(-c3cccc(C(F)(F)F)c3)nn3cc(C(F)(F)F)ccc23)n1 [GW630813] as the entry.
Result: 0

Request: Tell me its %Inh given O=C(NCCNc1ccnc(Nc2ccc(F)cc2)n1)Nc1ccc2c(c1)OCO2 [GSK1379882] as the entry.
Result: 0

Request: Tell me its %Inh given COc1cc(Nc2nccc(N3CCC(NC(=O)C(C)c4ccc(Cl)cc4)C3)n2)cc(OC)c1OC (stereo not shown) [GSK1379757] as the entry.
Result: 0

Request: Tell me its %Inh given CCn1c(-c2nonc2N)nc2ccccc21 [SB-693162/GW549034] as the entry.
Result: 48

Request: Tell me its %Inh given O=C(Nc1ccc2c(c1)OCO2)NC1CCN(c2ccnc(NCc3ccc(F)cc3)n2)CC1 [GSK1379859] as the entry.
Result: 10
